Target: Induced myeloid leukemia cell differentiation protein Mcl-1 (Homo sapiens, UniProt Q07820)
Sequence (Q07820 whole entry): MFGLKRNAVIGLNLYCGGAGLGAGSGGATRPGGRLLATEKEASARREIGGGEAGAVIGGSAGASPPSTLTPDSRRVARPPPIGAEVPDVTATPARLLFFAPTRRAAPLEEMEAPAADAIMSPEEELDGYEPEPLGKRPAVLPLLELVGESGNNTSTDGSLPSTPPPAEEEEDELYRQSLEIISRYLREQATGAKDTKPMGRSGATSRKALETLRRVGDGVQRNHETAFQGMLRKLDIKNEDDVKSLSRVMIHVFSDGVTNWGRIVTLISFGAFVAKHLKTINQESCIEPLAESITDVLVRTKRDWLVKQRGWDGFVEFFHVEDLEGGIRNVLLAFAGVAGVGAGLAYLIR
Type: functional
Calls of active or inactive are those of the source.
EXPERIMENTAL ENDPOINT: IC50

>>> result("COc1ccc2nc(NC(=O)Nc3cccc4ccccc34)sc2c1")
"5.86 µM (not active)"

Fill in the blank: the reported IC50 of O=C(O)c1cc(N/N=C/c2ccc(N3CCOCC3)s2)ccc1Cl is ____.
3.84 µM (active)

Fill in the blank: the reported IC50 of CC1C(=O)NN=C1C(=O)N/N=C\c1ccc(O)cc1O (configuration not stated) is ____.
7.72 µM (active)

Fill in the blank: the reported IC50 of Cc1ccc(/C=c2\sc3nc(-c4ccccc4Br)nn3c2=O)o1 is ____.
3.18 µM (active)

Fill in the blank: the reported IC50 of Cc1cc(C(=O)OCC(=O)Nc2sc3c(c2C#N)CCC(C)C3)c2ccccc2n1 (configuration not stated) is ____.
5.16 µM (active)

Fill in the blank: the reported IC50 of CN(C(=O)COC(=O)c1cc(-c2ccco2)nc2ccccc12)C1CCS(=O)(=O)C1 (configuration not stated) is ____.
1.59 µM (active)

Fill in the blank: the reported IC50 of O=C(Cn1c(=O)n(-c2ccccc2)c(=O)c2sccc21)N1CCCC1 is ____.
11.6 µM (not active)

---

Biological target: UniProt Q8IL11
Sequence (Q8IL11 whole entry): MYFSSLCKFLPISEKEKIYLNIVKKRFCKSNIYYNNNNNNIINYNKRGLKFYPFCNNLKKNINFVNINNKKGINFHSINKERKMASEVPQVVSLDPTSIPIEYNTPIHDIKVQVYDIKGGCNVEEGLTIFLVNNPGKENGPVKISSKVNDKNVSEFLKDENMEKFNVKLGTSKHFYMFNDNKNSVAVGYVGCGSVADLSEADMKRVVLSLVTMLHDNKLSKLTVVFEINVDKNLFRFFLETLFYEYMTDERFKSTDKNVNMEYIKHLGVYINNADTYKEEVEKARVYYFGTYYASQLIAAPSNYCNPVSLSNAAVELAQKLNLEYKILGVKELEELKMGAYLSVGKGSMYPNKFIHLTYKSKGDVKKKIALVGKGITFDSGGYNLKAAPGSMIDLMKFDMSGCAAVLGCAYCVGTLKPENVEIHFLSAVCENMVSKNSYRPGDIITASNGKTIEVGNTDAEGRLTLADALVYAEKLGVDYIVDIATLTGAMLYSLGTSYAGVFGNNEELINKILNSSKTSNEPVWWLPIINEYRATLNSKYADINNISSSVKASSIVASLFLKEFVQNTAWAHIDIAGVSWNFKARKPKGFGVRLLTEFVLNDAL
Assay: P. falciparum M17LAP inhibitors, primary screen, biochemical, fluorogenic H-Leu-NHMec substrate, 1536-well (AID 1619)
Type: functional
Activity calls are given as the source filed them.
// reported IC50 per item

Example results:
>>> result("Cc1cc(C(=O)COC(=O)c2ccc[nH]c2=O)c(C)n1-c1ccc(F)cc1")
"1.98 µM (active)"
>>> result("CC1(C)Cc2c(sc(NC(=O)C3CC(Cl)=CCC3C(=O)O)c2C#N)CO1 (stereo not given)")
"1.4 µM (active)"
>>> result("Cc1sc(NC(=O)C2C3CCC(O3)C2C(=O)O)c(C(=O)OC(C)C)c1-c1ccc(Cl)cc1 (stereo not given)")
"10.1 µM (active)"
>>> result("Cc1ccc(/C=c2\\sc3nc(-c4ccccc4Br)nn3c2=O)o1")
"95.5 µM (active)"

UniProt Q8IL11 / IC50 / C=CCn1c(N)cc(=O)nc1SCC(=O)Nc1ccc2ccccc2c1 : value?
5.68 µM (active)

---

Target: Heat shock factor protein 1 (Mus musculus, UniProt P38532)
Sequence (P38532 whole entry): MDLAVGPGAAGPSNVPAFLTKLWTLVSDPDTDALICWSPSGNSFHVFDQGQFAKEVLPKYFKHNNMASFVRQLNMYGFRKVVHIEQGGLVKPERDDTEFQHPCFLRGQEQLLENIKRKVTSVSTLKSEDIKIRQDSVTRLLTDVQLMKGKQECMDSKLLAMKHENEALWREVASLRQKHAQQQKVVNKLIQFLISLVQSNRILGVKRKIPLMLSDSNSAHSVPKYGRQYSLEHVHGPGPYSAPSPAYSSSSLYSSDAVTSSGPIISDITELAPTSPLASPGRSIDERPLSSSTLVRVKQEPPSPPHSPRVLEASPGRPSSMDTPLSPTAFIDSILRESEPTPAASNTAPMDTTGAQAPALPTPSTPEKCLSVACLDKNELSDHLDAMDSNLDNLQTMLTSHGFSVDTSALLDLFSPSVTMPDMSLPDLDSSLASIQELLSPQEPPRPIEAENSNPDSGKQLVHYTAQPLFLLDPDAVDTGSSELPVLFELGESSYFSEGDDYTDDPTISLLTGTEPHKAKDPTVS
Test: inhibition of MG132-induced HSE-luciferase signal, confirmation, cell-based, NIH3T3, luminescence, dose retest (AID 2382);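 also: NIH3T3 fibroblasts with HSF1-driven luciferase reporter stressed by proteasome inhibitor MG132; luminescence from HSF1-driven luciferase expression after 8 hours of MG132 stress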
Assay type: functional
The source made the active and inactive calls.
EXPERIMENTAL ENDPOINT: EC50

Example results:
>>> result("Cc1ccc(OCCC(=O)OCC(=O)Nc2ccc(N3CCOCC3)cc2)cc1")
"> 195 µM (not active)"
>>> result("Cn1c2ccccc2c2cnn(CC(=O)N3CCC4(CC3)OCCO4)c(=O)c21")
"39.3 µM (active)"
>>> result("NCCCC(=O)O [GAMMA-AMINOBUTYRIC ACID]")
"> 195 µM (not active)"

Fill in the blank: the reported EC50 of CC(C)C(NC(=O)C12CC3CC(CC(C3)C1)C2)C(=O)NC1=NCCS1 (stereo not given) is ____.
> 195 µM (not active)

Fill in the blank: the reported EC50 of Cc1ccc(S(=O)(=O)N/N=C/c2c(C)nn(-c3ccccc3)c2C)cc1 is ____.
> 195 µM (not active)

Fill in the blank: the reported EC50 of CCOC(=O)c1c(C)[nH]c(C(=O)N/N=C/c2cc([N+](=O)[O-])ccc2O)c1C is ____.
0.86 µM (active)

Fill in the blank: the reported EC50 of COc1cccc(N2CCN(C(S)=Nc3cc(C)cc(C)c3)CC2)c1 is ____.
94.4 µM (active)

Fill in the blank: the reported EC50 of COc1ccc(N2CCN(c3oc(Cc4ccccc4)nc3C#N)CC2)cc1 is ____.
> 195 µM (not active)

Fill in the blank: the reported EC50 of COc1cc2c(cc1OC)C(/C=C(\O)c1ccc(C)cc1)=NCC2 is ____.
> 195 µM (not active)

Fill in the blank: the reported EC50 of CCOC(=O)NN=C1c2ccccc2-c2nc3nonc3nc21 is ____.
3.64 µM (active)

Fill in the blank: the reported EC50 of CCCCOc1cccc(C2C(C(=O)c3cccs3)=C(O)C(=O)N2Cc2cccnc2)c1 (stereo not given) is ____.
> 195 µM (not active)

Fill in the blank: the reported EC50 of CN1N=C2c3ccccc3CCC2C1c1ccc(C(F)(F)F)cc1 (stereo not given) is ____.
79.4 µM (active)

---

// reported EC50 per item
Assay: Luminescence Cell-Based Dose Confirmation HTS to Identify Inhibitors of Platelet Dense Granule Release. [Related pubchem assays: 1663 (Primary HTS), 1678 (Summary of Project)]
Format: functional
Calls of active or inactive are those of the source.

>>> result("CCOC(=O)c1cnc2c(C#N)c(C)nn2c1-c1ccccc1")
"54.1 µM (active)"
>>> result("CCOc1ccc(C(=O)O/N=C(\\N)c2ccccn2)cc1OCC")
"> 112 µM (not active)"
>>> result("COC(=O)c1c(NC(=O)C2CC(=O)NN2Cc2ccccc2)sc(C)c1C (centres undefined)")
"> 112 µM (not active)"
>>> result("OC1=C(/C=N/c2ccc3c(c2)OCO3)CCc2ccccc21")
"7.07 µM (active)"
>>> result("Fc1ccc(/C=N/Nc2nccnc2Cl)cc1")
"1.65 µM (active)"
>>> result("COc1ccc2nc(NC(=O)c3ccoc3C)sc2c1")
"0.468 µM (active)"

Fill in the blank: the reported EC50 of Nc1ccn(-c2ccc(Cl)cc2)c(=O)c1 is ____.
> 112 µM (not active)

Fill in the blank: the reported EC50 of COc1cccc(/C=N/NC(=O)C(=O)N/N=C/c2cccc(OC)c2OC)c1OC is ____.
> 112 µM (not active)

Fill in the blank: the reported EC50 of COC(=O)c1c(-c2cccnc2)csc1NC(=O)c1ccc2c(c1)OCO2 is ____.
8.11 µM (active)

---

Assay: C. albicans growth with fluconazole, confirmation, fluorescence, retest (AID 2467)
Assay type: functional, cell-based
Activity calls are given as the source filed them.
EXPERIMENTAL ENDPOINT: EC50

Example results:
>>> result("O=[N+]([O-])c1ccc(S(=O)(=O)Nc2nc3ccccc3nc2Nc2ccccc2)cc1")
"2.06 µM (active)"
>>> result("O=C(NN=C(S)Nc1cccc(C(F)(F)F)c1)c1ccc(Cl)cc1Cl")
"4.65 µM (active)"
>>> result("CC1=C/C(=N\\NC(=S)NCCc2ccccc2)CC(C)(C)C1")
"> 38 µM (not active)"

Fill in the blank: the reported EC50 of CCCCC(=O)NC(c1ccc(Cl)cc1)c1ccc2cccnc2c1O (stereo unspecified) is ____.
0.413 µM (active)

Fill in the blank: the reported EC50 of COc1cccc(/C=N/Nc2cc(C)nc(-c3ccccc3O)n2)c1O is ____.
0.294 µM (active)

Fill in the blank: the reported EC50 of O=C(N/N=C/c1ccccc1O)/C(O)=C\C1=NC2(CCCC2)Cc2ccccc21 is ____.
0.663 µM (active)

---

Target: UniProt P63165
Sequence (P63165 whole entry): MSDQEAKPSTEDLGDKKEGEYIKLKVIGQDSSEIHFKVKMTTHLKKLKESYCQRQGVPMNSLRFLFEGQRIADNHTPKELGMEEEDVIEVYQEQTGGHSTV
Assay: inhibitors of SUMO1 partner interactions, dose response, biochemical, FRET (AID 624383)
Type: functional
Conditions: read-out: IC50_Mean
Active and inactive are the calls of the source.
// allowed return values: active, inactive

Consider the following illustrative entries.
>>> class_label("C=C(C)C(=O)Nc1cccc(C2=NOC3(C2)C[C@@H](C(N)=O)N(C(=O)CC(c2ccccc2)c2ccccc2)C3)c1 (stereo partly specified)")
"active"
>>> class_label("CCN(CC)CCOC(=O)c1ccc(N/C=C(/C#N)c2nc(-c3ccc4c(c3)OCO4)cs2)cc1")
"active"
>>> class_label("CN(C(=O)COC(=O)c1cc(-c2ccco2)nc2ccccc12)C1CCS(=O)(=O)C1 (stereo unspecified)")
"active"

Dear colleague, could you share the recorded outcome for CN(C(=O)COC(=O)c1ccc(-c2ccc(O)cc2)cc1)C1CCS(=O)(=O)C1 (stereo unspecified) when you have a moment?
active

Dear colleague, could you share the recorded outcome for CCOC(=O)c1cc(-c2ccc(N3CCOCC3)cc2)nn1-c1ccccc1C(=O)O when you have a moment?
active

Dear colleague, could you share the recorded outcome for O=C(Nc1cc([N+](=O)[O-])ccc1O)c1cccc(C(=O)Nc2cc([N+](=O)[O-])ccc2O)c1 when you have a moment?
inactive

---

Biological target: Corticotropin-releasing factor receptor 2/Corticotropin-releasing factor-binding protein (Homo sapiens, UniProt P24387+Q13324)
Sequence (Q13324 whole entry): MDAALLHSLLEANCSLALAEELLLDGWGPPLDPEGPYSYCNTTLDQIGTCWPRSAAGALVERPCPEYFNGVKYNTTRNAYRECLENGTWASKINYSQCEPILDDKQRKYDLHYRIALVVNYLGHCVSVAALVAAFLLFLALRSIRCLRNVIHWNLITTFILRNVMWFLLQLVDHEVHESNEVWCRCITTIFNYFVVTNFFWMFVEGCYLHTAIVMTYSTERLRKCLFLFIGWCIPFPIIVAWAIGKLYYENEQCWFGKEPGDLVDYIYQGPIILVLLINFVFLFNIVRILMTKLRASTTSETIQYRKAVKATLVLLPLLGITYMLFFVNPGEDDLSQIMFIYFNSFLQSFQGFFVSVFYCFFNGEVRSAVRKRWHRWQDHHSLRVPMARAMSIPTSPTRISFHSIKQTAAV
Sequence (P24387 whole entry): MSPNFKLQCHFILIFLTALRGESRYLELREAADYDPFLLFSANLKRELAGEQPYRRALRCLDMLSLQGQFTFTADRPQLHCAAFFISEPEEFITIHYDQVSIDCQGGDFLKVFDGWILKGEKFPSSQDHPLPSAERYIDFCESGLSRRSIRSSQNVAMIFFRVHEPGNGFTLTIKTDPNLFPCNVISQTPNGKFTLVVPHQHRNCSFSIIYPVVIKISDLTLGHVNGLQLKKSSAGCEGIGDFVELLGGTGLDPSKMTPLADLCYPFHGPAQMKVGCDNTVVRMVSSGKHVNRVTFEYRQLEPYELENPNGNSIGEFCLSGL
Assay: activators of CRF receptor 2 with binding protein – uHTS hits, confirmation (AID 602473)
Type: functional
Conditions: read-out: EC50_Mean
The source made the active and inactive calls.
// allowed return values: YES for active, NO for inactive

Consider the following illustrative entries.
>>> class_label("O=C(Nc1ncc(Cc2ccc(Cl)cc2Cl)s1)c1ccc([N+](=O)[O-])cc1")
"NO"
>>> class_label("CCCc1n[nH]c(SCc2ccc(Cl)cc2Cl)n1")
"NO"
>>> class_label("Cc1cc(OCCCC(=O)Nc2cc(S(=O)(=O)N3CCOCC3)ccc2N2CCOCC2)ccc1Cl")
"NO"
>>> class_label("COc1cc(OC)c(OC)cc1/C=C1/Cc2ccccc2C1=O")
"YES"
>>> class_label("CCCc1cc(=O)nc(SCC(=O)Nc2ccc(OC(F)F)cc2)[nH]1")
"NO"
>>> class_label("COc1ccc(N2CCN(C(=O)CCS(=O)(=O)c3ccc4c(c3)NC(=O)CO4)CC2)cc1")
"NO"

Read the next record carefully.
Dear colleague, could you share the recorded outcome for O=C(Nc1nc(-c2ccccc2)cs1)c1ccc2c(c1)S(=O)(=O)c1ccccc1C2=O when you have a moment?
NO
